# test_details: p53 small molecule agonists, cell-based qHTS assay with human liver microsomes: qHTS cell viability counter screen (AID 1963579); also: nearly all actives have a fitted effect of over 45% in size
# particulars: p53RE-bla HCT-116 viability, ATP luminescence, 16 h, HLM; series mostly up to 66 µM
Inconclusive results are not listed. Activity calls are given as the source filed them. Calls follow the shape of the full dose curve.
Response enum: active, inactive

Outcome logged for Cc1cc2nc3ccc(=[N+](C)C)cc-3sc2cc1N in this assay:
active

Outcome logged for COC(=O)c1ccccc1OC in this assay:
inactive

* * *

# target_or_system: Beta-2 adrenergic receptor (Homo sapiens)
# test_details: Adrenergic beta2 receptor (ADRB2) small molecule agonists, cell-based qHTS assay (AID 1963593);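 also: CHO cells stably overexpressing human ADRB2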
# particulars: CHO-ADRB2 cells, cAMP HTRF, 30 min; series mostly up to 92.4 µM
Inconclusive results are not listed. The source made the active and inactive calls. The call rests on the fitted dose curve.
recorded_endpoint: activation

- compound: "CCC(C)(C)c1cc(O)c(C(C)(C)CC)cc1O"
  target_or_system: "Beta-2 adrenergic receptor (Homo sapiens)"
  activation: "inactive"
- compound: "OCCc1ccncc1"
  target_or_system: "Beta-2 adrenergic receptor (Homo sapiens)"
  activation: "inactive"
- compound: "Cc1c(-c2ccccc2)oc2c(C(=O)OCCN3CCCCC3)cccc2c1=O"
  target_or_system: "Beta-2 adrenergic receptor (Homo sapiens)"
  activation: "inactive"
- compound: "O=c1[nH][nH]c2ccccc12"
  target_or_system: "Beta-2 adrenergic receptor (Homo sapiens)"
  activation: "inactive"
- compound: "FC1(F)C(F)(F)C(F)(F)C2(F)C(F)(F)C(F)(F)C(F)(F)C(F)(F)C2(F)C1(F)F (stereo not drawn)"
  target_or_system: "Beta-2 adrenergic receptor (Homo sapiens)"
  activation: "inactive"

Moving on to another compound below.
Entry under review: Cc1cccc(C(=O)O)c1O . Reported activation?
inactive

Each recorded value in this set is attributed to PubChem BioAssay (Tox21).
